Measured values drawn from patent US12617797B2 for this set.

- target_entity: Human α2δ-1 subunit of Cav2.2 calcium channel (Homo sapiens)
- Sequence (P54289 25-1103): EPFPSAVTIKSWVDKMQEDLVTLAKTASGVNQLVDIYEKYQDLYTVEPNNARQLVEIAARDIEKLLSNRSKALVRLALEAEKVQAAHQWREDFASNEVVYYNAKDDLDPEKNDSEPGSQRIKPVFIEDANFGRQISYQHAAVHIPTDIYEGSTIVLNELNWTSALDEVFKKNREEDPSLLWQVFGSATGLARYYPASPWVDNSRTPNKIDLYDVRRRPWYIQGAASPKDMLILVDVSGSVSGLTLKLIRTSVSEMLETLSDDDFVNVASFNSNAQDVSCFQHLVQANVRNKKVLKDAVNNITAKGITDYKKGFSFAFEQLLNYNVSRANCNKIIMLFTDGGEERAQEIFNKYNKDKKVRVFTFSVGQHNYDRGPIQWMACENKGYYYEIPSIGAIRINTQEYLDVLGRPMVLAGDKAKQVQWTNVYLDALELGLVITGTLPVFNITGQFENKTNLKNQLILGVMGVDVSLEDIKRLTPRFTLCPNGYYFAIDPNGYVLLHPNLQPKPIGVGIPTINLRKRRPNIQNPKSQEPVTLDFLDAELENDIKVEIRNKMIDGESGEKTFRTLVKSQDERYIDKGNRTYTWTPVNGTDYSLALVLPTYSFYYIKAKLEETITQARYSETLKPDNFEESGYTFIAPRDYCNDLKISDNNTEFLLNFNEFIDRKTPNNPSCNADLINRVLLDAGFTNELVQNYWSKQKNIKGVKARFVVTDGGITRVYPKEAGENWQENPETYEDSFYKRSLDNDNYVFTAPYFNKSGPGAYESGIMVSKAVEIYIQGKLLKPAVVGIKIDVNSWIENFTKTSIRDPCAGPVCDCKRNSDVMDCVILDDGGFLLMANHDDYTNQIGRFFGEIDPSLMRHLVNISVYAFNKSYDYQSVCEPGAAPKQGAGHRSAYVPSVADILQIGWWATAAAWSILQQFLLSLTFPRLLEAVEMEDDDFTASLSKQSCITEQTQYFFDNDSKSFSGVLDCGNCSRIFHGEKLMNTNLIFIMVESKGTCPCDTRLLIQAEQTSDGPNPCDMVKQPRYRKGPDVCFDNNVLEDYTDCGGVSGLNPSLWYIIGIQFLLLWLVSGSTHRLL
- assay_name: Human α2δ-1 subunit of Cav2.2 calcium channel assay ([3H]-gabapentin binding)
- run_parameters: binding to the α2δ-1 subunit of voltage-gated calcium channels expressed as Ki; + also covers inhibition between 1% and 50%
Ki values, listed per item

Take a look at these entries with their results.
molecule="Cc1nn2c(C3CCCN(Cc4ccc(F)c(F)c4)C3)ccnc2c1CNCC1CCOCC1 (centres unmarked)" measured_endpoint=Ki readout_value="< 0.5 µM"
molecule="Cc1cccc(CN2CCCC(c3ccnc4c(-c5ccncc5)c(C)nn34)C2)c1 (centres unmarked)" measured_endpoint=Ki readout_value="> 5 µM"
molecule=Cc1nn2c([C@@H]3CCCN([C@H](CO)c4ccccc4)C3)ccnc2c1-c1ccncc1 measured_endpoint=Ki readout_value="> 5 µM"
molecule="c1ccc(CN2CCCC(c3ccnc4cc(-c5cncnc5)nn34)C2)cc1 (centres unmarked)" measured_endpoint=Ki readout_value="0.5 to 5 µM"
molecule=Cc1nn2c([C@H]3CCCN(Cc4ccc(F)cc4F)C3)ccnc2c1CNCC1CCOCC1 measured_endpoint=Ki readout_value="0.5 to 5 µM"
molecule=Cc1nn2c([C@H]3CCCN(Cc4ccc(Cl)cc4)C3)ccnc2c1CNC[C@@H]1CCOC(C)(C)C1 measured_endpoint=Ki readout_value="> 5 µM"

Request: Returns the measured Ki for the input molecule. Input: COc1ncccc1-c1cc2nccc(C3CCCN(Cc4ccc(Cl)cc4)C3)n2n1 (centres unmarked)
Response: > 5 µM

Request: Also Cc1nn2c([C@@H]3CCCN(Cc4ccc(Cl)cc4)C3)ccnc2c1CNCC1CCOCC1 ?
Response: > 5 µM

Request: // next record CN(C)c1ccc(-c2cc3nccc(C4CCCN(Cc5ccccc5)C4)n3n2)cc1 (centres unmarked)
Response: 0.5 to 5 µM

Request: Repeat for the following molecule: Cc1nn2c(CC3CCCN(Cc4cccc(Cl)c4)C3)ccnc2c1-c1ccncc1 (centres unmarked)
Response: > 5 µM

Request: For CCOc1ccc(-c2c(C)nn3c(C4CCCN(Cc5ccccc5)C4)ccnc23)cc1 (centres unmarked) then?
Response: > 5 µM

Request: Queued: Cc1nn2c([C@@H]3CCCN(Cc4ccc(Cl)cc4)C3)ccnc2c1CN(C)CC1CC1
Response: > 5 µM

Request: Cc1nn2c(C3CCCN(Cc4ccc(Cl)cc4Cl)C3)ccnc2c1-c1ccncc1 (centres unmarked) , same question.
Response: > 5 µM

Request: Again, but for Cc1nn2c(C3CCCN(Cc4ccc(Cl)cc4)C3)ccnc2c1CN(C)Cc1ccc(CO)cc1 (centres unmarked)
Response: 0.5 to 5 µM

Request: What would you report for Cc1nn2c(C3CCCN(Cc4ccc(Cl)cc4)C3)ccnc2c1CN(CC1CCOCC1)CC(F)(F)F (centres unmarked) ?
Response: > 5 µM

Request: Now give it for Cc1nn2c(C3CCCN(Cc4ccccc4)C3)ccnc2c1CNCC1C[C@@H](C)O[C@@H](C)C1 (some centres unmarked) too.
Response: 0.5 to 5 µM

Request: Please give the result for CC(=O)N1CCC(CNCc2c(Cl)nn3c([C@@H]4CCCN(Cc5ccccc5)C4)ccnc23)CC1 too.
Response: > 5 µM

###

- target_entity: UniProt Q99720
- Sequence (Q99720 whole entry): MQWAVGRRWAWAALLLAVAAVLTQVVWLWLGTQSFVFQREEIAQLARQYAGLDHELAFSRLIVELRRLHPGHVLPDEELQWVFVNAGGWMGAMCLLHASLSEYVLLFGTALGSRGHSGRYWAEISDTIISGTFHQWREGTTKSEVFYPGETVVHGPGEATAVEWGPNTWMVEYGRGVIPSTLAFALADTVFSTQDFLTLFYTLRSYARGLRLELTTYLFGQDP
measured_endpoint: Ki

compound=Cc1nn2c([C@H]3CCCN(Cc4ccccc4F)C3)ccnc2c1CNCC1CCOCC1 readout_value="< 0.5 µM"
compound=Cc1nn2c([C@@H]3CCCN(Cc4ccc(Cl)cc4)C3)ccnc2c1CN[C@@H](C)c1ccccc1 readout_value="< 0.5 µM"
compound="Cc1nn2c(C3CCCN(Cc4ccccc4)C3)ccnc2c1CN (centres unmarked)" readout_value="> 1 µM"
compound=CNCc1c(C)nn2c([C@H]3CCCN(Cc4ccc(Cl)cc4)C3)ccnc12 readout_value="< 0.5 µM"
compound="Cc1ccc(CNCc2c(C)nn3c(C4CCCN(Cc5ccc(Cl)cc5)C4)ccnc23)s1 (centres unmarked)" readout_value="< 0.5 µM"
compound="Cc1nn2c(C3CCCN(Cc4ccc(Cl)cc4)C3)ccnc2c1CNCc1ccc(F)cc1 (centres unmarked)" readout_value="< 0.5 µM"
compound="Cc1cnc2c(CNCC3CCOCC3)c(C)nn2c1C1CCCN(Cc2ccc(Cl)cc2)C1 (centres unmarked)" readout_value="< 0.5 µM"

Request: Suppose we examine the compound COc1ncccc1-c1cc2nccc(C3CCCN(Cc4ccc(Cl)c(Cl)c4)C3)n2n1 (centres unmarked) ; what Ki value has been reported?
Response: > 1 µM
